Kindly supply the reported inhibition values for the records listed here.
# tested_on: Protein Mdm4 (Homo sapiens) + E3 ubiquitin-protein ligase Mdm2 (Homo sapiens) (UniProt O15151+Q00987)
# Sequence (O15151 whole entry, looked up): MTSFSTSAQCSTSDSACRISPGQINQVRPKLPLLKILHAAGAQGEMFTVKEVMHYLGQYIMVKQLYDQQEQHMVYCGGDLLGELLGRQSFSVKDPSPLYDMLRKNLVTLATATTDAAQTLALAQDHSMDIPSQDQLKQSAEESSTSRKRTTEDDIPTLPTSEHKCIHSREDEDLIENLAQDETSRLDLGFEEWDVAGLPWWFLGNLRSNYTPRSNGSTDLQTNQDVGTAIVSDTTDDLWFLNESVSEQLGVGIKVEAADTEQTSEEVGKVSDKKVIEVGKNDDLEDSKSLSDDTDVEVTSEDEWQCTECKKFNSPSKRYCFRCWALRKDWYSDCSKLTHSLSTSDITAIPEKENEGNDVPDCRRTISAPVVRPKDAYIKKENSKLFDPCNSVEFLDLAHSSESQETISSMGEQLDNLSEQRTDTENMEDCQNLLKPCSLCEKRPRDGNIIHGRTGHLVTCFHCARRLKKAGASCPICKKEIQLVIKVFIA
# Sequence (Q00987 whole entry, looked up): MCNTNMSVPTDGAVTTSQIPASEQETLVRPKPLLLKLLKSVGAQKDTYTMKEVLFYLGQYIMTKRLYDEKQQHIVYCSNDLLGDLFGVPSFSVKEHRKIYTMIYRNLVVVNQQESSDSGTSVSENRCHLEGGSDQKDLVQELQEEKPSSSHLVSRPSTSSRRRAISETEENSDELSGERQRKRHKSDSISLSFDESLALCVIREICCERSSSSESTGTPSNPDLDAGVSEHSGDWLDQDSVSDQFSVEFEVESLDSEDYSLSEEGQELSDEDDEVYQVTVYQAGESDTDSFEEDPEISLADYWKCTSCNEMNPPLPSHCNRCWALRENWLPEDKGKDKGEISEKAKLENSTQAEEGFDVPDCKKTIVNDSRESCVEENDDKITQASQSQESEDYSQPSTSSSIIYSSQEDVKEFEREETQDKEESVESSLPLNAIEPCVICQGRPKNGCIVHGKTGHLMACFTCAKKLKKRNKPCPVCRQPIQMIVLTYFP
# assay_summary: inhibitors of human Mdm2-MdmX association, primary screen, cell-based, luminescence, split luciferase, SaOS-2, uHTS (AID 485346)
# measurement_parameters: SaOS-2 split-luciferase Mdm2/MdmX complementation, at 8 µM, hits give high values
In all, about 330,000 compounds went through this assay and about 10,000 (3%) were called active. Shown is part of a subset that was picked to be rich in actives.
Numbers only, in %.

Use the examples below as a reference point.
# compound, recorded_endpoint, value_units, readout_number
measured = [
    ("CCOC(=O)C(C(=O)OCC)C(C#N)c1ccccc1 (stereo not given)", "inhibition", "%", -30.8),
    ("O=C(CCCN1C(=O)/C(=C/c2cccs2)SC1=S)Nc1ccc(O)cc1", "inhibition", "%", 62.6),
    ("COc1ccccc1NS(=O)(=O)c1ccc(C(=O)N2CCN(c3ccccc3O)CC2)cc1", "inhibition", "%", 19.3),
    ("O=C(Cc1ccc(-c2ccccc2)cc1)NC(c1ccccc1)c1ccccc1", "inhibition", "%", 6.83),
    ("O=C(NNc1ccccc1Cl)C(O)(c1cccc(C(F)(F)F)c1)c1cccc(C(F)(F)F)c1", "inhibition", "%", 94.5),
]

I would be grateful if you could provide inhibition for each of the following entries.
1. Cc1ccc(NC(=O)C(=O)NCC2CCN(C(=O)c3cccc([N+](=O)[O-])c3)CC2)cc1
2. O=C(O)c1cccc(NC(=O)c2cc(-c3cccc(Cl)c3)nc3ccccc23)c1
3. COC(=O)c1ccc(Oc2nc(NC(C)C)nc(SC)n2)cc1
4. Cc1c(C(=O)Nc2cccc(Cl)c2)cn2c(nc3ccccc32)c1C#N
5. O=C(Nc1cc(C(F)(F)F)ccc1Cl)C(=O)N1CCCCC1

Response:
-4.26
0.449
22.5
60.3
4.88

meta.source: PubChem BioAssay AID485346
